Listed next: entries and their corresponding apparent KD of MS2 coat protein.
- Test system: MS2 coat protein
- ASSAY REMARKS: apparent KD of MS2 coat protein; designed switch direction (-1 OFF switch, 1 ON switch): 1; higher = weaker reporter binding
- CONDITION SUMMARY: input ligand: none
Express it in nM; write the number only.

- SEQ: "GCUCGAUGAAAGUCCUACAUGAGGAUCACCCAUGUACGUGGGCAGGAUAUCUACAUGCAGAGUGUAGAGAAGGGCCCAUCGAGC [SameState NG3 #60] (Eterna round: R96, puzzle: Same State NG 3)"
  apparent KD of MS2 coat protein [nM]: 34.9

From here, focus on the item given below.
q: For the sequence ACAUGAGAGCGAGGAUAUAUUGUACCUACAUGUGACAUGAGGAUCACCCAUGUGGUAAGUAUGACAUAGAAGGCGCAGAUAUGU [Equivalance 91 - Jieux - Same State NG 2] (Eterna round: R96, puzzle: Same State NG 2) , what apparent KD of MS2 coat protein is on record?
a: 33.7
